# Measured On: Alpha amylase (Homo sapiens)
# Test Description: Inhibition of alpha-amylase (unknown origin) using 1% starch as substrate preincubated for 30 mins followed by substrate addition and measured after 30 mins by colorimetric analysis
# Format: protein assay
Readout: pIC50
Lab note: jot down the number only; don't add units.

Worked set:
Cc1ccc(-n2cc(CN3C(=O)S/C(=C\N(C)C)C3=O)nn2)c(C)c1: 7.318
CN(C)/C=C1\SC(=O)N(Cc2cn(-c3cccc(Cl)c3)nn2)C1=O: 7.182
CCc1ccc(-n2cc(CN3C(=O)S/C(=C\N(C)C)C3=O)nn2)cc1: 7.169
CC(C)c1ccc(-n2cc(CN3C(=O)S/C(=C\N(C)C)C3=O)nn2)cc1: 7.268
C#CCN1C(=O)S/C(=C\N(C)C)C1=O: 6.859

Moving on to another compound below.
Qu. For the compound shown here, COc1cccc(-n2cc(CN3C(=O)S/C(=C\N(C)C)C3=O)nn2)c1 , give the reported pIC50.
Ans. 7.164

---

# Measured On: Alpha amylase (Homo sapiens, UniProt P0DUB6)
# Sequence (P0DUB6 whole entry): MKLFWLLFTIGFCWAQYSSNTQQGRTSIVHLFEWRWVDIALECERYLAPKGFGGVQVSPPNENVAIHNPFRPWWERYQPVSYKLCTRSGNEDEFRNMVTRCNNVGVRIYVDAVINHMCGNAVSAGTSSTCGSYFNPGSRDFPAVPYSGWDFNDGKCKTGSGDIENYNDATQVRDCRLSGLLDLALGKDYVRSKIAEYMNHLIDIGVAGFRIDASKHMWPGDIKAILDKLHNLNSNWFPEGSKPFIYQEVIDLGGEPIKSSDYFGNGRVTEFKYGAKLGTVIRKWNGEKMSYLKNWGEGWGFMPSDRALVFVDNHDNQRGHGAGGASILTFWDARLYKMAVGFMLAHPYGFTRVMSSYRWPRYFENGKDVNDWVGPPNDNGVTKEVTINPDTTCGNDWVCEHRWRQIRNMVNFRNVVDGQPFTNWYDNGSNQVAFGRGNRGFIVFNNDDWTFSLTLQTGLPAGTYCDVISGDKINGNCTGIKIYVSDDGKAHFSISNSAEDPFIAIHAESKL
# Test Description: Inhibition of alpha-amylase (unknown origin) using 1% starch as substrate preincubated for 30 mins followed by substrate addition and measured after 30 mins by colorimetric analysis
# Assay type: protein assay
Attribute: IC50

CN(C)/C=C1\SC(=O)N(Cc2cn(-c3ccc([N+](=O)[O-])cc3)nn2)C1=O: 0.059 µmol/mL
CN(C)/C=C1\SC(=O)N(Cc2cn(-c3cccc(Cl)c3)nn2)C1=O: 0.066 µmol/mL
C#CCN1C(=O)S/C(=C\N(C)C)C1=O: 0.139 µmol/mL
CN(C)/C=C1\SC(=O)N(Cc2cn(-c3ccccc3C(F)(F)F)nn2)C1=O: 0.048 µmol/mL
COc1ccccc1-n1cc(CN2C(=O)S/C(=C\N(C)C)C2=O)nn1: 0.065 µmol/mL

Qu. Would you mind telling me what IC50 value was observed for CCc1ccccc1-n1cc(CN2C(=O)S/C(=C\N(C)C)C2=O)nn1 ?
Ans. 0.049 µmol/mL

Qu. Record: CN(C)/C=C1\SC(=O)N(Cc2cn(-c3ccccc3Cl)nn2)C1=O
Ans. 0.091 µmol/mL

Qu. Moving on to Cc1cc(C)cc(-n2cc(CN3C(=O)S/C(=C\N(C)C)C3=O)nn2)c1
Ans. 0.066 µmol/mL

Qu. Follow-up item: CC(C)c1ccc(-n2cc(CN3C(=O)S/C(=C\N(C)C)C3=O)nn2)cc1
Ans. 0.054 µmol/mL

Qu. Likewise for CN(C)/C=C1\SC(=O)N(Cc2cn(-c3cccc(C(F)(F)F)c3)nn2)C1=O ?
Ans. 0.055 µmol/mL

Qu. Quick one: COc1cccc(-n2cc(CN3C(=O)S/C(=C\N(C)C)C3=O)nn2)c1
Ans. 0.069 µmol/mL

Qu. Also check CN(C)/C=C1\SC(=O)N(Cc2cn(-c3ccnc4cc(Cl)ccc34)nn2)C1=O
Ans. 0.04 µmol/mL

Qu. Would you kindly repeat that for Cc1cccc(-n2cc(CN3C(=O)S/C(=C\N(C)C)C3=O)nn2)c1 ?
Ans. 0.061 µmol/mL

Qu. Can you handle Cc1ccc(C)c(-n2cc(CN3C(=O)S/C(=C\N(C)C)C3=O)nn2)c1 next?
Ans. 0.093 µmol/mL

Qu. Now consider CN(C)/C=C1\SC(=O)N(Cc2cn(-c3ccc(C(F)(F)F)cc3)nn2)C1=O .
Ans. 0.084 µmol/mL

Qu. Please do the same for CN(C)/C=C1\SC(=O)N(Cc2cn(Cc3ccccc3)nn2)C1=O as well.
Ans. 0.08 µmol/mL

---

# Measured On: Alpha amylase (Homo sapiens)
# Test Description: Inhibition of alpha-amylase (unknown origin) using 1% starch as substrate preincubated for 30 mins followed by substrate addition and measured after 30 mins by colorimetric analysis
# Format: protein assay
Readout: pIC50
Lab note: jot down the number only; don't add units.

CN(C)/C=C1\SC(=O)N(Cc2cn(-c3cccc(C(F)(F)F)c3)nn2)C1=O: 7.258

Qu. API: value(readout= pIC50, system= Alpha amylase (Homo sapiens), query= CN(C)/C=C1\SC(=O)N(Cc2cn(Cc3ccccc3)nn2)C1=O )
Ans. 7.095

Qu. Repeat for the following compound: CN(C)/C=C1\SC(=O)N(Cc2cn(-c3ccnc4cc(Cl)ccc34)nn2)C1=O
Ans. 7.399

Qu. Now consider CN(C)/C=C1\SC(=O)N(Cc2cn(-c3ccccc3C(F)(F)F)nn2)C1=O and answer again.
Ans. 7.319

Qu. Do the same for CN(C)/C=C1\SC(=O)N(Cc2cn(-c3ccc(C(F)(F)F)cc3)nn2)C1=O please
Ans. 7.077

---

# Measured On: Alpha amylase (Homo sapiens)
# Test Description: Inhibition of alpha-amylase (unknown origin) using 1% starch as substrate preincubated for 30 mins followed by substrate addition and measured after 30 mins by colorimetric analysis
# Type: protein assay
// classify: if (IC50 < 0.07 µmol/mL) MET else NOT MET

See these solved cases before continuing.
CN(C)/C=C1\SC(=O)N(Cc2cn(Cc3ccc(Cl)cc3Cl)nn2)C1=O: MET
CCCCn1cc(CN2C(=O)S/C(=C\N(C)C)C2=O)nn1: MET
COc1ccc(-n2cc(CN3C(=O)S/C(=C\N(C)C)C3=O)nn2)cc1: MET
Cc1ccc(-n2cc(CN3C(=O)S/C(=C\N(C)C)C3=O)nn2)c(C)c1: MET
CN(C)/C=C1\SC(=O)N(Cc2cn(-c3cccc(Cl)c3Cl)nn2)C1=O: MET

Qu. Is it true that IC50 reported for CN(C)/C=C1\SC(=O)N(Cc2cn(-c3ccc(F)cc3)nn2)C1=O is less than 0.07 µmol/mL?
Ans. NOT MET

Qu. Moving on to the next molecule: CN(C)/C=C1\SC(=O)N(Cc2cn(-c3ccccc3)nn2)C1=O
Ans. NOT MET

Qu. Okay, and CN(C)/C=C1\SC(=O)N(Cc2cn(-c3ccc(Cl)cc3)nn2)C1=O ?
Ans. NOT MET

Qu. Cool, now CN(C)/C=C1\SC(=O)N(Cc2cn(CC(=O)c3ccc(Br)cc3)nn2)C1=O
Ans. NOT MET

---

# Measured On: Alpha amylase (Homo sapiens, UniProt P0DUB6)
# Test Description: Inhibition of alpha-amylase (unknown origin) using 1% starch as substrate preincubated for 30 mins followed by substrate addition and measured after 30 mins by colorimetric analysis
# Assay type: protein assay
As shown below, each of these compounds has a reported pIC50 value.
Keep the answer to the number alone.

Solved cases (5 shown):
CN(C)/C=C1\SC(=O)N(Cc2cn(CC(=O)c3ccc(Br)cc3)nn2)C1=O: 7.108
Cc1ccc(C)c(-n2cc(CN3C(=O)S/C(=C\N(C)C)C3=O)nn2)c1: 7.032
CN(C)/C=C1\SC(=O)N(Cc2cn(Cc3ccc(Cl)cc3Cl)nn2)C1=O: 7.349
CCCCn1cc(CN2C(=O)S/C(=C\N(C)C)C2=O)nn1: 7.24
COc1ccc(-n2cc(CN3C(=O)S/C(=C\N(C)C)C3=O)nn2)cc1: 7.276

Qu. Field request: pIC50 | item: Cc1cc(C)cc(-n2cc(CN3C(=O)S/C(=C\N(C)C)C3=O)nn2)c1
Ans. 7.182

Qu. // repeat for CN(C)/C=C1\SC(=O)N(Cc2cn(-c3ccccc3)nn2)C1=O and report
Ans. 7.003

Qu. Lookup CCc1ccccc1-n1cc(CN2C(=O)S/C(=C\N(C)C)C2=O)nn1
Ans. 7.307

Qu. COc1ccccc1-n1cc(CN2C(=O)S/C(=C\N(C)C)C2=O)nn1 ?
Ans. 7.185

Qu. Next compound up: CN(C)/C=C1\SC(=O)N(Cc2cn(-c3ccc(Cl)cc3)nn2)C1=O
Ans. 7.01

This collection of values is drawn from ChEMBL document CHEMBL5579846.
